Origin of measurements: patent US9108944B2

Target: AR-VP16 (Homo sapiens, UniProt P10275)
Sequence (P10275 560-920 limits assumed): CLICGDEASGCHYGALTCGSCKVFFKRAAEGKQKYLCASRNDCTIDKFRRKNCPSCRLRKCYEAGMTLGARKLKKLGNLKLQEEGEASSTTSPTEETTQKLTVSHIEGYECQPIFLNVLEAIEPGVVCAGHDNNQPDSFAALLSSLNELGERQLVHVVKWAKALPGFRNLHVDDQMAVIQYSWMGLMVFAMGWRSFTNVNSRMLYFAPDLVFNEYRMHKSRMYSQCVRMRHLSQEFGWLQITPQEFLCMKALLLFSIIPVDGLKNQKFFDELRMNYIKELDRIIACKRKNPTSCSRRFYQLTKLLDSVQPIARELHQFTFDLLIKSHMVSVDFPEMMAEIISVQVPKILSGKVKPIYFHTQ
Assay: AR-VP16 DNA Binding Assay, antagonist mode (HepG2 cells, 0.1 nM R1881)
property-measured: IC50

Please provide the recorded IC50 for N#Cc1ncc(N2C(=O)C3(CCC3)N(c3ccc(OC4CCN(C(N)=O)CC4)cc3)C2=S)cc1C(F)(F)F , tested on AR-VP16 (Homo sapiens, UniProt P10275).
< 1000 nM

Reported IC50 for AR-VP16 (Homo sapiens, UniProt P10275), given N#Cc1ncc(N2C(=O)C3(CCC3)N(c3ccc(OCCC4CCCCC4)c(F)c3)C2=S)cc1C(F)(F)F ?
< 1000 nM

# returns recorded IC50 (system: AR-VP16 (Homo sapiens, UniProt P10275)) for N#Cc1ncc(N2C(=O)C3(CCC3)N(c3ccc(F)c(C(=O)NCCc4cccnc4)c3)C2=S)cc1C(F)(F)F
> 1000 nM

What value of IC50 on AR-VP16 (Homo sapiens, UniProt P10275) does CCOC(=O)c1cc(N2C(=S)N(c3cnc(C#N)c(C(F)(F)F)c3)C(=O)C23CCC3)ccc1F have?
> 1000 nM
